# experimentalSystem: Fyn (UniProt P06241)
# Sequence (P06241 whole entry, looked up): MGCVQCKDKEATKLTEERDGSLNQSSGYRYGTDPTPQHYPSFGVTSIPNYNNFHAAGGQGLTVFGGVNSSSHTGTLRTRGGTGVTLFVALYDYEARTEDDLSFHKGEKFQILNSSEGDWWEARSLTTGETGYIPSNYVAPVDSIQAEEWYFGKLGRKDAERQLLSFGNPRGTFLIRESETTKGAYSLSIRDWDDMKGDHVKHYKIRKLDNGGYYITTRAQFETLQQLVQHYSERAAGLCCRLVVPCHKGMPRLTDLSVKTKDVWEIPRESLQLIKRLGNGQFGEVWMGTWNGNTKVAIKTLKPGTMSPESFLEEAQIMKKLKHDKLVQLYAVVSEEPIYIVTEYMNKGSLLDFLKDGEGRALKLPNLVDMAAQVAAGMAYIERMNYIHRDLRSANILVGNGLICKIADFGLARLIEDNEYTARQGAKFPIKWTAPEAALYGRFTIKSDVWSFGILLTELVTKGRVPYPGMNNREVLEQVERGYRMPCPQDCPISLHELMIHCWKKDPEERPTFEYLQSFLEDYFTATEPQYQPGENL
# methodDescription: phosphorylation enrichment, bacterial display (enrichment ratio); higher = better substrate or ligand; peptides without Tyr show the background;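 also: 11-residue human phosphosite peptides and single-mutation variants displayed on the E. coli surface, counted by deep sequencing, each peptide's frequency after selection divided by its frequency in the unselected input library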;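 also: frequency after pTyr selection over input frequency; kinase dosed for 20-30% of maximal phosphorylation in three min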
Please provide measured phosphorylation enrichment for the entries that follow.
Reply: number alone, nothing else.

Reported phosphorylation enrichment, sequence AESPEYVHMFT [FAM111A_Y511_YF] : ____
0.502

Next entry: KFLENYLNCLL [PLD2_Y169_R172C_YF]
0.497

Next sequence up: WNDPDYMDSRR [GAA_Y407_L405P]
0.493

Could you do the same for ASQEEYSAMRD [KRAS_Y64_G60S] , please?
0.487

---

# experimentalSystem: FGFR3 (UniProt P22607)
# Sequence (P22607 whole entry, looked up): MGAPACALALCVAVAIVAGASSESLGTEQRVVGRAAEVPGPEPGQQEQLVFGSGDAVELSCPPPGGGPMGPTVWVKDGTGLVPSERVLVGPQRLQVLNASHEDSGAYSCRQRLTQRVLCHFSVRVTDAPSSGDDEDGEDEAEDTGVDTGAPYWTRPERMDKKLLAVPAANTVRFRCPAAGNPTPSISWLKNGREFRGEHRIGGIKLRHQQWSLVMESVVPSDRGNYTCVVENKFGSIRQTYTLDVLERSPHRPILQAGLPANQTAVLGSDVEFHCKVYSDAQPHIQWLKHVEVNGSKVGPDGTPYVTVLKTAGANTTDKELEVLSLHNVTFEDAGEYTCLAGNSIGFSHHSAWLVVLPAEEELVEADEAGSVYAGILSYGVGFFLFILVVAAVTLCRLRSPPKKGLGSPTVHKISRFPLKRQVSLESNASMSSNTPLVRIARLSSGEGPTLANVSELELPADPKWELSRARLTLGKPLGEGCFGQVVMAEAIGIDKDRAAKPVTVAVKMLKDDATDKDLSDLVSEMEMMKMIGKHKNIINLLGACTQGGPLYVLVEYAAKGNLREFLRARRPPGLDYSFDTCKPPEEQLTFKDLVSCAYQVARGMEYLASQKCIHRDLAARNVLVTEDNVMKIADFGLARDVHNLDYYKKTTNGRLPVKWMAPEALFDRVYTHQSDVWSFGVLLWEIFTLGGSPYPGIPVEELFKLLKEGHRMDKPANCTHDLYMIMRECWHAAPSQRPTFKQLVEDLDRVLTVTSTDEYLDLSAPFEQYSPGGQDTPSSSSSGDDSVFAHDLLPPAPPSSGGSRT
# methodDescription: phosphorylation enrichment, bacterial display (enrichment ratio); higher = better substrate or ligand; peptides without Tyr show the background
experimentalReadout: phosphorylation enrichment

Consider the sequence shown here: ISIFHYAKGQP [MPZ_Y82] What is its recorded phosphorylation enrichment?
0.68

Input IQRSLYDCPAS [PDGFRA_Y762_R764C]
0.706

Again, but for VRFMEYETQVK [TARDBP_Y155_T153M]
0.694
